Hello, the source for this data is patent US20240043859A1, in case you need it.

assay: Chromogenic reaction of degrading herbicides in bacteria: 2,4-D; type: cell-based, Escherichia coli; conditions: recombinant E. coli expressing the gene, 2,4-D added to the medium; red = phenols
readout: Chromogenic reaction of degrading herbicides in bacteria: 2,4-D

>  <molecule>
QYD65: AAD-like candidate enzyme; 100.00% identical to CN103013939-0002 (protein, Synthetic polypeptide, QYD65, D65) MAIAIRQLHPHFVGEVSGVDLRHPLTRDEVAELQAAIDHYAVLVFHDQDIGDEQQLAFALNFGDREKARGGTVTKKEDYRLTTGLNDVSNLGKDGKPLPPDHRTHLFNLGNCLWHSDSSFRPIPAKYSILSARIVNPKGGNTEFADMRAAYDALDEQTKAEIDDLVSEHSLMYSRGSLGFLDYTDEEKKMFKPVRQRLVRTHPAHGRKSLYLSSHAGAVVGMSMPEGRLLLRDLTEHATQPEFVYVHKWRLHDLVMWDNRQTVHRVRRYDQSQPRDMRRATVAGTEPTVAQQAAE

>  <recorded-measurement>
Yes

$$$$
>  <molecule>
QYD67: AAD-like candidate enzyme; 100.00% identical to US20180244732-0002 (protein, Synthetic polypeptide, QYD67, D67) MSPAFDIAPLDATFGAVVTGVHLATLDDAGFAALHAAWLQHALLIFPGQHLSNDQQITFAKRFGAIERIGGGDIVAISNVKADGTVRQHSPAEWDDMMKVIVGNMAWHADSTYMPVMAQGAVFSAEVVPAVGGRTCFADMRAAYDALDEATRALVHQRSARHSLVYSQSKLGHVQQAGSAYIGYGMDTTATPLRPLVKVHPETGRPSLLIGRHAHAIPGMDAAESERFLEGLVDWACQAPRVHAHQWAAGDVVVWDNRCLLHRAEPWDFKLPRVMWHSRIAGDPASETALAH

>  <recorded-measurement>
Yes

$$$$
